- System: vascular smooth muscle cells (VSMC)
- protocol notes: LDH release cytotoxicity in VSMC
- Format: cell-based
- conditions used: VSMC, 10 μM, 48 h, relative to vehicle
Marks after values point to notes of the source that are not given here.
result type: LDH release % Increase VSMC

{"columns": ["compound", "LDH release % Increase VSMC"],
 "data": [
  ["Cc1cccc(-n2c(-c3sc(NC(=O)c4ccccc4)nc3-c3ccccc3)nc3ccccc3c2=O)c1 [PMCR45]", "116# %"]
]}

Query: // LDH release % Increase VSMC lookup, key: Cc1ccccc1-n1c(-c2cc(-c3ccncc3)c(N3CCOCC3)s2)nc2ccccc2c1=O [PMCR188]
Response: 148# %

Query: // LDH release % Increase VSMC lookup, key: COc1ccccc1-n1c(-c2cc(-c3ccc(S(C)(=O)=O)cc3)c(N3CCOCC3)s2)nc2ccccc2c1=O [PMCR204]
Response: 164# %

Query: // LDH release % Increase VSMC lookup, key: O=c1c2ccccc2nc(-c2cc(-c3ccncc3)c(N3CCOCC3)s2)n1-c1ccc(Cl)cc1 [PMCR236]
Response: 91# %

Query: // LDH release % Increase VSMC lookup, key: CCOC(=O)Nc1nc(-c2ccccc2)c(-c2nc3ccccc3c(=O)n2-c2ccccc2C)s1 [PMCR25]
Response: 78# %

Query: // LDH release % Increase VSMC lookup, key: O=c1c2ccccc2nc(-c2cc(-c3ccncc3)c(N3CCOCC3)s2)n1-c1ccccc1Cl [PMCR224]
Response: 18%

###

- Tested on: NF-κB
- protocol notes: NF-κB inhibitor screen: basal NF-κB-dependent luciferase expression in HEK/NF-κB cell line
- Assay type: cell-based
- conditions used: 1 uM; determined as described in Example 398; read-out: NFkB inhibition @ 1 uM
result type: inhibition at 1 µM (%)
Return type: number; implicit unit %.

Completed entries (count: 3):
{"columns": ["sample smiles", "system under test", "result type", "readout value"],
 "data": [
  ["Cc1ccc(C(=O)Nc2nc(-c3ccccc3)c(-c3nc4ccccc4c(=O)n3-c3ccc(Cl)cc3)s2)cc1", "NF-κB", "inhibition at 1 µM", 0],
  ["CC(=O)c1ccc(-n2c(-c3sc(Nc4ccc(Cl)cc4)nc3C)nc3ccccc3c2=O)cc1", "NF-κB", "inhibition at 1 µM", 0],
  ["Cc1ccc(-n2c(-c3sc(Nc4ccc(Cl)cc4)nc3-c3ccccc3)nc3ccccc3c2=O)cc1", "NF-κB", "inhibition at 1 µM", -16]
]}

Read the next record carefully.
Query: Please tell me: inhibition at 1 µM of CNc1nc(C)c(-c2nc3ccccc3c(=O)n2-c2cccc(C)c2)s1 , system NF-κB?
Response: 10

###

- Tested on: Human umbilical vein endothelial cells (HUVEC)
- protocol notes: LDH release cytotoxicity in HUVEC
- Type: cell-based
- conditions used: HUVEC, 10 μM, 48 h, relative to vehicle
result type: LDH release % Increase HUVEC (%)
Return type: number; implicit unit %.

Query: // LDH release % Increase HUVEC lookup, key: CNc1nc(C)c(-c2nc3ccccc3c(=O)n2-c2ccccc2C)s1
Response: 14

Query: // LDH release % Increase HUVEC lookup, key: Cc1nc(Nc2ccc(Cl)cc2)sc1-c1nc2ccccc2c(=O)n1-c1ccccc1Cl
Response: 6

Query: // LDH release % Increase HUVEC lookup, key: COc1ccc(-n2c(-c3cc(-c4ccc(S(C)(=O)=O)cc4)c(N4CCOCC4)s3)nc3ccccc3c2=O)cc1
Response: 0

Query: // LDH release % Increase HUVEC lookup, key: COc1ccccc1-n1c(-c2cc(-c3ccncc3)c(N3CCOCC3)s2)nc2ccccc2c1=O
Response: −1

Query: // LDH release % Increase HUVEC lookup, key: Cc1ccccc1-n1c(-c2sc(Nc3ccccc3)nc2C)nc2ccccc2c1=O
Response: 17

###

- protocol notes: MTT viability in skin cell line pair, tumorigenic and non-tumorigenic
- Type: cell-based
- conditions used: human, Viability (MTT) % Decrease SRB12-p9
result type: cytotoxicity at 48 h, 10 μM (%)
Return type: number; implicit unit %.

Query: // cytotoxicity at 48 h, 10 μM lookup, key: CNc1nc(C)c(-c2nc3ccccc3c(=O)n2-c2ccc(Cl)cc2)s1 [Example 244]
Response: 28

###

- System: vascular smooth muscle cells (VSMC)
- protocol notes: Trypan blue viability count in VSMC
- Format: cell-based
- conditions used: VSMC, 10 μM, 48 h, relative to vehicle
- Protocol: Additional compounds have also been tested for their ability to inhibit both TNF-α-induced NF-κB—expression and PMA-induced AP-1 expression. In both tests, the compound was added for 1 h, then the appropriate inducer was added, and luciferase activity was monitored 24 h later. […] Following treatment, the media from the VSMC and HUVEC incubations were removed, and the amount of lactate dehydrogenase (LDH) released into the medium was determined with a commercial kit. […]
Marks after values point to notes of the source that are not given here.
Viable Cells % Decrease VSMC values for the compounds below.

Completed entries (count: 5):
{"columns": ["compound", "Viable Cells % Decrease VSMC"],
 "data": [
  ["Cc1ccccc1-n1c(-c2sc(Nc3ccccc3)nc2C)nc2ccccc2c1=O [PMCR20]", "34# %"],
  ["Cc1nc(Nc2ccc(Cl)cc2)sc1-c1nc2ccccc2c(=O)n1-c1ccccc1Cl [PMCR120]", "13%"],
  ["CNc1nc(C)c(-c2nc3ccccc3c(=O)n2-c2ccccc2C)s1 [PMCR19]", "29# %"],
  ["CCOC(=O)Nc1nc(-c2ccccc2)c(-c2nc3ccccc3c(=O)n2-c2ccccc2C)s1 [PMCR25]", "56# %"],
  ["O=c1c2ccccc2nc(-c2cc(-c3ccncc3)c(N3CCOCC3)s2)n1-c1ccc(Cl)cc1 [PMCR236]", "94# %"]
]}

Query: // Viable Cells % Decrease VSMC lookup, key: CC(=O)c1ccc(-n2c(-c3cc(-c4ccncc4)c(N4CCOCC4)s3)nc3ccccc3c2=O)cc1 [PMCR242]
Response: 90# %

Query: // Viable Cells % Decrease VSMC lookup, key: Cc1ccccc1-n1c(-c2cc(-c3ccncc3)c(N3CCOCC3)s2)nc2ccccc2c1=O [PMCR188]
Response: 92# %

Query: // Viable Cells % Decrease VSMC lookup, key: Cc1cccc(-n2c(-c3sc(NC(=O)c4ccccc4)nc3-c3ccccc3)nc3ccccc3c2=O)c1 [PMCR45]
Response: 67# %

###

- Tested on: NF-κB
- protocol notes: NF-κB inhibitor screen: basal NF-κB-dependent luciferase expression in HEK/NF-κB cell line
- Format: cell-based
- conditions used: 1 uM; determined as described in Example 398; read-out: NFkB inhibition @ 1 uM
- Experimental: Development of NF-κB and AP-1 Screens: Two HEK293 cell lines were purchased from Panomics. […] The above two assays analyzed the effects of the compounds on post-transcriptional gene regulation, which is known to play a key role in cancer and inflammation. […] Luciferase activity was determined using Promega's Brite-Glo kit, and the mean for each sample was normalized to that for DMSO. […]
result type: inhibition at 1 µM
Form entry: enter the amount, then its unit.

Completed entries (count: 7):
{"columns": ["molecule", "system under test", "inhibition at 1 µM"],
 "data": [
  ["COc1cccc(-n2c(-c3sc(Nc4ccccc4)nc3-c3ccccc3)nc3ccccc3c2=O)c1 [Example 213]", "NF-κB", "35%"],
  ["COc1ccc(-n2c(-c3sc(Nc4ccc(Cl)cc4)nc3C)nc3ccccc3c2=O)cc1 [Example 217]", "NF-κB", "-38%"],
  ["O=C(Nc1nc(-c2ccccc2)c(-c2nc3ccccc3c(=O)n2-c2ccc(Cl)cc2)s1)c1ccccc1 [Example 253]", "NF-κB", "87%"],
  ["Cc1nc(Nc2ccccc2)sc1-c1nc2ccccc2c(=O)n1-c1ccccc1 [Example 157]", "NF-κB", "25%"],
  ["Cc1nc(Nc2ccc(Cl)cc2)sc1-c1nc2ccccc2c(=O)n1-c1ccc(Cl)cc1 [Example 246]", "NF-κB", "96%"],
  ["Cc1ccccc1-n1c(-c2sc(Nc3ccccc3)nc2C)nc2ccccc2c1=O [Example 169]", "NF-κB", "21%"],
  ["Cc1ccc(C(=O)Nc2nc(-c3ccccc3)c(-c3nc4ccccc4c(=O)n3-c3ccccc3)s2)cc1 [Example 163]", "NF-κB", "88%"]
]}

Query: // inhibition at 1 µM lookup, key: COc1ccc(-n2c(-c3sc(Nc4ccccc4)nc3-c3ccccc3)nc3ccccc3c2=O)cc1 [Example 221]
Response: 79%

###

- System: cell lines from the skin, one tumorigenic and one non-tumorigenic
- protocol notes: MTT viability in skin cell line pair, tumorigenic and non-tumorigenic
- Format: cell-based
result type: Viability (MTT) % Decrease SRB12-p9 (%)
Return type: number; implicit unit %.

{"columns": ["molecule", "result type", "readout value"],
 "data": [
  ["O=c1c2ccccc2nc(-c2cc(-c3ccncc3)c(N3CCOCC3)s2)n1-c1ccc(Cl)cc1 [PMCR236]", "Viability (MTT) % Decrease SRB12-p9", 19],
  ["Cc1ccccc1-n1c(-c2sc(Nc3ccccc3)nc2C)nc2ccccc2c1=O [PMCR20]", "Viability (MTT) % Decrease SRB12-p9", 14]
]}

Read the next record carefully.
Query: // Viability (MTT) % Decrease SRB12-p9 lookup, key: O=c1c2ccccc2nc(-c2cc(-c3ccncc3)c(N3CCOCC3)s2)n1-c1ccccc1Cl [PMCR224]
Response: 13
